Each recorded value in this set is attributed to ChEMBL document CHEMBL1132721.

species: Rattus norvegicus; assay: Inhibition of the sensitization of CA1 pyramidal neurons to depolarization by L-AP6 after reversal with L-alpha-AA; format: functional, organism-based; conditions: Pyramidal neuron
Result type: IC50

Annotate the molecule N[C@]1(C(=O)O)C[C@H](n2oc(=O)[nH]c2=O)C1 with its measured IC50.
> 10 mM

* * *

target: Glutamate receptor ionotropic, AMPA (Rattus norvegicus, UniProt P19490+P19491+P19492+P19493); assay: Inhibition of Ionotropic glutamate receptor AMPA mediated depolarization by the compound at a concentration of 400 uM after 20 minutes in rat
Result type: IC50 (µM)
Numbers only, in µM.

Give the reported IC50 for this compound. N[C@]1(C(=O)O)C[C@@H](n2oc(=O)[nH]c2=O)C1
390
